# Test system: U251 CNS
# assay-explanation: NCI-60 one-dose screen, 48 h (100 = growth as untreated, 0 = no growth, -100 = all killed)
# assay-conditions: 10 µM
Compounds without any hit were thinned out: in the full panel of roughly 83,000, 20% have a hit.
// NB: equality with 20% counts as NO; only growth strictly below is YES

> print(dat)
                                   compound  class.assignment
1  CN1C(=O)N(C)C2SC(N/N=C/c3cccs3)=NC21 (centres undefined)                NO
2  O=c1nc(-c2ccccc2)cc(-c2cc3ccccc3nc2Cl)[nH]1               YES
3  O=C(CSc1nnc(-c2c[nH]c3ccccc23)n1-c1ccccc1)Nc1ccc(C(=O)/C=C/c2ccc(Br)cc2)cc1                NO
4  O=C1CCC(N2Cc3cc(CC(=O)Nc4ccc(N5CCCCC5)cc4)ccc3C2=O)C(=O)N1 (centres undefined)                NO
5  COc1csc(/C=N/NC(=O)c2[nH]c3ccc(Br)cc3c2-c2ccccc2)c1               YES

Report whether reported growth is lower than 20% (strictly) for O=C(c1ccc(Cl)cc1)C1[C@H](c2ccccc2Br)[C@@H](c2ccccc2)NC12C(=O)Nc1ccc(Br)cc12 (some centres undefined) YES

Lab note: growth threshold 20%. Does this compound come in strictly under it? N#Cc1c(-c2ccc(Cl)cc2)cc(-c2ccccc2)nc1OCc1ccccc1 NO

growth under 20%? Item: O=C(/C=C/Nc1ccc(F)cc1F)c1ccc2c(c1)Nc1ccccc1S2 NO

Decide: growth of COc1cnc2c(c1)C(=O)c1c-2n(CCCNCCO)c(=O)c2cc(OC)c(OC)cc12 strictly below 20%? NO

====

Consider the following compounds; for each one, report its growth.
# Test system: SF-268 CNS
# assay-explanation: NCI-60 one-dose screen, 48 h (100 = growth as untreated, 0 = no growth, -100 = all killed)
# assay-conditions: 10 µM
This is part of a sample that, as a whole, favours compounds with a hit. Of some 83,000 tested, about 20% had one in any assay.
Answers are plain numbers, in %.

Examples from the recorded data:
> print(dat)
                                   compound  measurement.units  data.value
1  O=C(COc1ccc(NC(=O)Nc2ccc(Cl)cc2)cc1)N=Nc1c(O)[nH]c2ccc([N+](=O)[O-])cc12                  %        19.5
2  O=C(Nc1cccc(-c2cn(-c3ccc4oc(=O)ccc4c3)nn2)c1)Nc1cc(C(F)(F)F)cc(C(F)(F)F)c1                  %        62.2
3  Cc1noc2c(Cc3ccc([N+](=O)[O-])cc3)nn(CC(=O)N/N=C/c3ccc(Cl)cc3)c(=O)c12                  %        23.5
4    COc1ccc2[nH]cc(/C=N/Nc3ccc(Br)cn3)c2c1                  %          21
5  C/C(=N\NC(N)=S)c1ccc(Nc2nc(SC(C)C)nc(-c3ccccc3)c2C#N)cc1                  %        54.8
6  Cc1nn(-c2ccccc2)c2ncn(CC(=O)N/N=C/c3c[nH]c4ccccc34)c(=O)c12                  %        73.5

Each compound below has a recorded value; state its growth.
1. CN1CCN(c2ccc(C(=O)/C=C/c3ccc(OC(F)F)cc3)cc2)CC1
2. CN1CCc2c(sc3ncnc(N/N=C/c4cn(-c5ccccc5)nc4-c4ccc(Br)cc4)c23)C1
3. CN(C)c1ccc(/C=C/c2nc3ccccc3c(=O)n2CC(=O)Nc2ccccc2)cc1
4. CC(=C(c1ccc(OCCCN(C)C)cc1)c1ccc(OCCCN(C)C)cc1)c1ccccc1
5. CC(=O)NS(=O)(=O)c1ccc(NC(=O)CSC2=NC(c3ccccc3)C(C(C)=O)=C(C)N2)cc1 (centres undefined)

1: 81; 2: 67.2; 3: 57.3; 4: -80.4; 5: 107

I have 2 compounds here; please give me growth for each one.
1. O=C(NO)c1ccc(CNc2nc(-c3ccccc3)c3ccccc3n2)cc1
2. O=C(Cn1cc(CSc2nnc3oc4ccccc4n23)nn1)Nc1cccc(Cl)c1

1. 7.8
2. 71.8

Record growth per entry; entries follow.
1. O=C1CCC(N2Cc3cc(CC(=O)Nc4ccc(N5CCCCC5)cc4)ccc3C2=O)C(=O)N1 (centres undefined)
2. O=S(=O)(Nc1ncccn1)c1ccc(-n2c(-c3ccccc3)nc(-c3ccccc3)c2-c2ccccc2)cc1

61.9
85
